Assay: qHTS of pediatric cancer cell lines to identify multiple opportunities for drug repurposing: Primary screen for SK-N-MC cells (AID 1347093)
Conditions: SK-N-MC viability, CellTiter-Glo luminescence, 48 h; series mostly up to 46 µM
Results filed as inconclusive are left out. Activity calls are given as the source filed them. Calls come from the whole dose curve; as a rule, active = well fitted cell-killing curve with a large enough effect; inconclusive = small, poorly fitted or top-dose-only effect; inactive = no such curve, though single readings can be large or run the other way.
Classes used: yes for active, no for inactive

compound: CC(=O)N1CCN(c2ccc(OCc3nn(C)c(C)c3-c3cccc4c(CCCOc5cc(C)c(Cl)c(C)c5)c(C(=O)O)n(Cc5cccnc5)c34)cc2)CC1
category: yes
//
compound: O=C(O)CCNc1cc(N2CCc3ccccc3CC2)nc(-c2ccccn2)n1
category: yes
//
compound: CCC[C@H](Nc1nc(-c2ccc(NC(=O)NCC)c(OC)c2)ncc1C)c1cccnc1
category: yes
//
compound: CCC(c1ccc(O)cc1)C(CC)c1ccc(O)cc1 (stereo not drawn)
category: yes
//
compound: CC[C@H](C)C(=O)O[C@H]1C[C@H](O)C=C2C=C[C@H](C)[C@H](CC[C@@H](O)C[C@@H](O)CC(=O)O)[C@H]21
category: no
//
compound: COc1c(C)c2c(c(O)c1CC=C(C)CCC(=O)O)C(=O)OC2
category: yes
//
compound: CC(=O)OCC(=O)[C@@]1(O)CC[C@H]2[C@@H]3CCC4=CC(=O)C=C[C@]4(C)[C@@H]3[C@@H](O)C[C@@]21C
category: no
//
compound: CCCCc1ccc(NS(=O)(=O)c2ccc(C)c(C(=O)N3CCN(c4cccc(C)c4C)CC3)c2)cc1
category: yes
//
compound: Cc1cccc2c1CC[C@H](CN1CCC(c3c(Cl)cccc3Cl)CC1)C[C@@H]2O
category: yes
//
compound: O=C(O)c1ccc(O)c2ncc(N3CCOCC3)cc12
category: yes
//
compound: C[C@H](c1ccc(F)cc1CCCC(=O)O)N(c1cc(F)ccc1F)S(=O)(=O)c1ccc(Cl)cc1
category: yes
//
compound: O=C(O)Cc1cccc(OCCCN(Cc2cccc(C(F)(F)F)c2Cl)CC(c2ccccc2)c2ccccc2)c1
category: yes
//
compound: CN1CCC[C@H]1CCO[C@](C)(c1ccccc1)c1ccc(Cl)cc1
category: yes
//
compound: O=C(NC[C@H](O)CO)c1ccncc1Nc1ccc(I)cc1F
category: yes
//
compound: NC1(C(=O)N[C@@H](CCO)c2ccc(Cl)cc2)CCN(c2ncnc3[nH]ccc23)CC1
category: yes
//
compound: OC[C@H]1O[C@@H](O[C@H]2[C@@H](O)[C@@](O)(CO)O[C@@H]2CO)[C@H](O)[C@@H](O)[C@@H]1O
category: no
//
compound: COc1ccc(-c2oc3c(CC=C(C)C)c(O)cc(O)c3c(=O)c2O)cc1
category: yes
//
compound: CCCCC(C)(C)[C@H](O)C=C[C@H]1[C@H](O)CC(=O)[C@H]1CC=CCCCC(=O)O
category: yes
//
compound: CC1(C)OC2CC3C4CC(F)C5=CC(=O)C=CC5(C)C4C(O)CC3(C)[C@]2(C(=O)CO)O1 (stereo partly drawn)
category: no
//
compound: O=C(CCCN1CCN(c2ccc(F)cc2)CC1)NC1c2ccccc2CSc2ccccc21 (stereo not drawn)
category: yes
//
compound: C[C@]12CCC3=C4CCC(=O)C=C4CC[C@@H]3[C@H]1CC[C@@]2(O)CC#N
category: no
//
compound: CCN1C[C@H](C)n2c(c(O)c3c(=O)n(Cc4ccc(F)c(Cl)c4)nc(C(=O)NC)c32)C1=O
category: no
//
compound: O=c1[nH]c(=O)n([C@H]2C[C@@H](O)[C@@H](CO)O2)cc1C(F)(F)F
category: yes

* * *

Experiment: Quantitative High-Throughput drug screen in 47 multiple myeloma cell lines against the NCATS MIPE library collection: MM1R_ATCC cell viability assay (AID 1918981); note: nearly all actives have a fitted effect of over 35% in size
Conditions: MM1R multiple myeloma cells, CellTiter-Glo viability, 48 h; series mostly up to 45.8 µM
Inconclusive results are not listed. Active and inactive are the calls of the source. Calls follow the shape of the dose curve; as a rule, active = well fitted cell-killing curve with a large enough effect; inconclusive = small, poorly fitted or top-dose-only effect, or effect the other way; inactive = no such curve, though single readings can be large or run the other way.
Classes used: active, inactive

molecule: CC(C)[C@H](O)C(=O)N[C@@H](C)C(=O)N[C@@H]1C(=O)N(C)CCc2ccccc21
category: inactive

molecule: C[C@@H]1O[C@@H](O[C@H]2CC[C@@]3(C)[C@H](CC[C@@H]4[C@H]3C[C@@H](O)[C@]3(C)[C@@H](C5=CC(=O)OC5)CC[C@]43O)C2)C[C@H](O)[C@@H]1O[C@H]1C[C@H](O)[C@H](O[C@H]2C[C@H](O)[C@@H](O)[C@@H](C)O2)[C@H](C)O1 (stereo in doubt)
category: active

molecule: CCNC(=O)CCCC=CC[C@@H]1[C@H](C=CC(O)CCc2ccccc2)[C@@H](O)C[C@@H]1O (stereo partly drawn)
category: active

molecule: CN1N=C(N)c2cn([C@@H]3O[C@H](COP(=O)(O)O)[C@@H](O)[C@@H]3O)c3ncnc1c23
category: active

molecule: O=S(=O)(NCCNCC=Cc1ccc(Br)cc1)c1cccc2cnccc12
category: active

molecule: Cc1ccc(NC(=O)c2ccc(CN3CCN(C)CC3)cc2)cc1Nc1nc(-c2cccnc2)cs1
category: active

molecule: NC[C@H]1O[C@H](O[C@@H]2[C@@H](O)[C@@H](O[C@H]3O[C@H](CO)[C@@H](O)[C@H](N)[C@@H]3O)[C@H](N)C[C@@H]2N)[C@H](O)[C@@H](O)[C@H]1O
category: inactive

molecule: CN(C)c1ccc(-c2nc3ncc(Cl)c(N4CCN(CC(=O)Nc5nccs5)CC4)c3[nH]2)cc1
category: active

* * *

Listing of entries alongside the reported Potency.
Test: Quantitative High-Throughput drug screen in 47 multiple myeloma cell lines against the NCATS MIPE library collection: MM1S_ATCC cell viability assay (AID 1918980); note: potency is the fitted concentration of half-maximal effect; nearly all actives have a fitted effect of over 45% in size
Conditions: MM1S myeloma viability, CellTiter-Glo ATP luminescence, 48 h; series mostly up to 45.8 µM
Results filed as inconclusive are left out. Activity calls are given as the source filed them. The call rests on the fitted dose curve; in most records, active means well fitted cell-killing curve with a large enough effect; inconclusive means small, poorly fitted or top-dose-only effect, or effect the other way; inactive means no such curve, though single readings can be large or run the other way.

entrySmiles: CN1CCc2c(n(Cc3ccc(C(=O)NO)cc3)c3ccccc23)C1
Potency: 16.6 µM (active)
//
entrySmiles: O=S(=O)(O)c1ccc2cc(N=Nc3cc(S(=O)(=O)O)c4cccnc4c3O)ccc2c1
Potency: 13.2 µM (active)
//
entrySmiles: C[C@@H](NC(=O)c1ncnc(N)c1Cl)c1ncc(C(=O)Nc2cc(C(F)(F)F)c(Cl)cn2)s1
Potency: 16.6 µM (active)

* * *

Assay: qHTS of pediatric cancer cell lines to identify multiple opportunities for drug repurposing: Primary screen for A673 cells (AID 1347092); note: nearly all actives have a fitted effect of over 45% in size
Details: A673 Ewing sarcoma viability, CellTiter-Glo ATP luminescence, 48 h; series mostly up to 46 µM
Records with an inconclusive call do not appear. Active and inactive are the calls of the source. The call rests on the fitted dose curve; in most records, active means well fitted cell-killing curve with a large enough effect; inconclusive means small, poorly fitted or top-dose-only effect; inactive means no such curve, though single readings can be large or run the other way.
Classes used: active, inactive

molecule: O=C(c1ccc(F)c(F)c1Nc1ccc(I)cc1F)N1CC(O)([C@H]2CCCCN2)C1
category: active

molecule: CC1=C[C@@H]2[C@@H]([C@@H](O)C[C@@]3(C)[C@H]2C[C@@H](C)[C@]3(O)C(=O)CO)[C@@]2(C)Cc3cnn(-c4ccccc4)c3C=C12
category: active

molecule: c1cc(OCCN2CCCCC2)cc(-c2n[nH]c3ccc(-c4ncn[nH]4)cc23)c1
category: active

molecule: CCC(C)SSc1ncc[nH]1 (stereo not drawn)
category: active

molecule: CC(NCCc1ccc(O)cc1)C(O)c1ccc(O)cc1 (stereo not drawn)
category: inactive

molecule: O=C(Nc1ccccc1)Nc1ccc(-c2ccc(C(=O)[C@H]3CCC[C@H]3C(=O)O)cc2)cc1
category: active

molecule: Cc1cccc(Nc2nc(N[C@@H]3CCCC[C@H]3N)ncc2C(N)=O)c1
category: active

molecule: c1ccc(CNc2nc(N3CCOc4ccccc43)nc3c2CCCC3)cc1
category: inactive

* * *

Experiment: qHTS of pediatric cancer cell lines to identify multiple opportunities for drug repurposing: Primary screen for NB-EBc1 cells (AID 1347095)
Conditions: NB-EBc1 neuroblastoma viability, CellTiter-Glo luminescence, 48 h; series mostly up to 46 µM
Inconclusive results are not listed. Calls of active or inactive are those of the source. Calls come from the whole dose curve; as a rule, active = well fitted cell-killing curve with a large enough effect; inconclusive = small, poorly fitted or top-dose-only effect; inactive = no such curve, though single readings can be large or run the other way.
Classes used: active, inactive

compound: Cc1ccc(C(=O)N(CCCN)[C@@H](c2oc3cc(Cl)ccc3c(=O)c2Cc2ccccc2)C(C)C)cc1
category: active
//
compound: CCN(CC)CCCCNc1nc2cc(Cl)c(Cl)cc2nc1-c1ccc(-c2cccs2)s1
category: active
//
compound: Cn1c(=O)c(Oc2ccc(F)cc2F)cc2cnc(NC3CCOCC3)nc21
category: inactive
//
compound: CN(C)CC[C@H](CSc1ccccc1)Nc1ccc(S(=O)(=O)NC(=O)c2ccc(N3CCN(Cc4ccccc4-c4ccc(Cl)cc4)CC3)cc2)cc1[N+](=O)[O-]
category: active
//
compound: Cc1ccc2c(c1)c1c(n2CCc2ccc(C)nc2)CCN(C)C1
category: inactive
//
compound: CC(C)Oc1cc(Nc2nc(N[C@@H](C)c3ccc(F)cn3)ncc2Cl)[nH]n1
category: active
//
compound: COc1nc(C)cnc1NS(=O)(=O)c1cccnc1-c1ccc(-c2nnco2)cc1
category: inactive
//
compound: Cc1nc2c([nH]1)CCN(C(=O)c1ccc(NC(=O)c3ccccc3-c3ccccc3)cc1)c1ccccc1-2
category: inactive
//
compound: Cc1ccc(C(=O)N(CCCN)[C@@H](c2nc3cc(Cl)ccc3c(=O)n2Cc2ccccc2)C(C)C)cc1
category: active
//
compound: Cc1cccc(Nc2nc(N[C@@H]3CCCC[C@H]3N)ncc2C(N)=O)c1
category: inactive
//
compound: Cc1cnc(CNC(=O)c2c(=O)c3ccc(N4CCCN(C)CC4)nc3n3c2sc2ccccc23)cn1
category: active
//
compound: CN1CCc2c(n(Cc3ccc(C(=O)NO)cc3)c3ccccc23)C1
category: active
//
compound: CC1CNc2c(cccc2S(=O)(=O)N[C@@H](CCCN=C(N)N)C(=O)N2CC[C@@H](C)C[C@@H]2C(=O)O)C1 (some centres undefined)
category: active
//
compound: C[C@@]1(c2cc(-c3cncnc3)c(F)cc2F)CCSC(N)=N1
category: active
//
compound: Nc1ncnc2c1c(-c1cccc(OCc3ccccc3)c1)cn2C1CC(CN2CCC2)C1 (centres undefined)
category: active
//
compound: Cc1ccc(NC(=O)Nc2cc(C(F)(F)F)ccc2F)cc1Nc1ccc2c(c1)NC(=O)C2=Cc1ccc[nH]1
category: active
//
compound: CCC[C@H](Nc1nc(-c2ccc(NC(=O)NCC)c(OC)c2)ncc1C)c1cccnc1
category: active
//
compound: O=C(c1ccc(C(=O)N2CCC(N3CCCC3)CC2)c(Nc2ccccc2)c1)N1CCC(N2CCCC2)CC1
category: inactive
//
compound: COc1ccc(CCN(C)CCCOc2ccc(S(=O)(=O)c3[nH]c4ccccc4c3C(C)C)cc2)cc1OC
category: active
//
compound: Cc1cnc(-c2cc(N3CCN(C(=O)CCS(C)(=O)=O)CC3)ncc2Cl)c(C)c1
category: inactive
//
compound: COc1ccc(-c2nc3ccc(C4=NNC(=O)CC4C)cc3[nH]2)cc1 (centres undefined)
category: active
//
compound: CS(=O)(=O)c1ccc(C2=C(c3ccccc3)C(=O)OC2)cc1
category: inactive
//
compound: NC(=O)c1ccc(N(C(N)=O)c2c(F)cccc2F)nc1-c1ccc(F)cc1F
category: inactive
//
compound: CN1CC(=O)N2C(Cc3c([nH]c4ccccc34)[C@H]2c2ccc3c(c2)OCO3)C1=O (some centres undefined)
category: inactive
//
compound: O=[N+]([O-])c1ccc(Nc2ccccc2-c2ccccc2)c2nonc12
category: active
//
compound: CCC(=O)OCC(=O)[C@@]1(OC(=O)CC)[C@@H](C)C[C@@H]2[C@H]3CCC4=CC(=O)C=C[C@]4(C)[C@@]3(F)[C@@H](O)C[C@@]21C
category: inactive
//
compound: CN1CCN2c3ncccc3Cc3ccccc3C2C1 (centres undefined)
category: inactive
//
compound: CC[C@@H]([C@H](C)O)n1ncn(-c2ccc(N3CCN(c4ccc(OCC5CO[C@@](Cn6cncn6)(c6ccc(F)cc6F)C5)cc4)CC3)cc2)c1=O (some centres undefined)
category: active
//
compound: CCOc1ccccc1N=Nc1c(C)[nH]n(-c2nc(-c3ccccc3)cs2)c1=O
category: inactive
